target: JAK2 (Homo sapiens (Human)); assay: Jak Biochemical HTRF Assay (JAK2); settings: read-out: JAK2 IC50, recombinant GST-tagged catalytic domain, [ATP] 8.5 μM, unit not given (compound concentrations tested given in nM)
measured-endpoint: IC50 (nM)
Write the value in nM as a bare number.

// field: IC50; key: N#C[C@H]1CCOC[C@@H]1n1nc(Nc2ccc3c(c2)CN(CC(F)(F)F)S3(=O)=O)c2c(=O)[nH]ccc21 [Example 1-62] ; value = 0.29

// field: IC50; key: CCN(C(C)(C)C)S(=O)(=O)c1ccc(Nc2nn([C@H]3COCC[C@@H]3C#N)c3cc[nH]c(=O)c23)cc1 [Example 1-79] ; value = 0.08

// field: IC50; key: CN(C(C)(C)C)S(=O)(=O)c1ccc(Nc2nn([C@H]3COCC[C@@H]3C#N)c3cc[nH]c(=O)c23)cc1 [Example 1-12] ; value = 0.3

// field: IC50; key: Cc1nc2ccc(Nc3nn([C@@H]4COCC[C@@H]4C#N)c4cc[nH]c(=O)c34)cc2s1 [Example 2-1] ; value = 0.89

// field: IC50; key: CS(=O)(=O)c1ccc(Nc2nn([C@H]3COCC[C@@H]3C#N)c3cc[nH]c(=O)c23)cc1 [Example 1-2] ; value = 0.35

// field: IC50; key: CC(C)(C)NS(=O)(=O)c1ccc(Nc2nn([C@H]3COCC[C@@H]3C#N)c3cc[nH]c(=O)c23)cc1 [Example 1-10] ; value = 0.21

// field: IC50; key: N#Cc1ccc(Nc2nn([C@H]3COCC[C@@H]3C#N)c3cc[nH]c(=O)c23)cc1 [Example 1-31] ; value = 0.96

---

target: JAK2 (Homo sapiens (Human), UniProt O60674); assay: Jak Biochemical HTRF Assay (JAK2); settings: JAK2 IC50, recombinant GST-tagged catalytic domain, [ATP] 8.5 μM, unit not given (compound concentrations tested given in nM)
Sequence (O60674 849-1124): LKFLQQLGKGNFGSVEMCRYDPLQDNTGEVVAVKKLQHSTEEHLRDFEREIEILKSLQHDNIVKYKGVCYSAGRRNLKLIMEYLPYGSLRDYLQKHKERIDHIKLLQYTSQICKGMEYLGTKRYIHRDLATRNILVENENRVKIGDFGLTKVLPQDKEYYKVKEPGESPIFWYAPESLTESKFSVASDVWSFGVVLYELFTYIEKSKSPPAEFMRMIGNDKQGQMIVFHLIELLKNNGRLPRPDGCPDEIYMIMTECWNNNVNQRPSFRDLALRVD
Answer each item with its documented IC50.
Write the value in nM as a bare number.

Observed IC50, JAK2 (Homo sapiens (Human), UniProt O60674), CC1CN(S(=O)(=O)c2ccc(Nc3nn([C@H]4COCC[C@@H]4C#N)c4cc[nH]c(=O)c34)cc2)CCO1 (single isomer, unassigned) [Example 1-74] : 0.52

Observed IC50, JAK2 (Homo sapiens (Human), UniProt O60674), CN1CCN(C(c2ccc(Nc3nn([C@H]4COCC[C@@H]4C#N)c4cc[nH]c(=O)c34)cc2)C(F)(F)F)CC1 (single isomer, unassigned) [Example 1-36] : 0.27

Observed IC50, JAK2 (Homo sapiens (Human), UniProt O60674), N#C[C@H]1CCOC[C@@H]1n1nc(Nc2ccc(C(N3CCCC3)C(F)(F)F)cc2)c2c(=O)[nH]ccc21 (single isomer, unassigned) [Example 1-42] : 0.13

Observed IC50, JAK2 (Homo sapiens (Human), UniProt O60674), N#C[C@H]1CCOC[C@@H]1n1nc(Nc2ccc(C3(C(F)(F)F)CCCCN3)cc2)c2c(=O)[nH]ccc21 (single isomer, unassigned) [Example 2-7] : 0.06

---

Answer each item with its documented IC50.
target: JAK2 (Homo sapiens (Human), UniProt O60674); assay: Jak Biochemical HTRF Assay (JAK2); conditions: JAK2 IC50, recombinant GST-tagged catalytic domain, [ATP] 8.5 μM, unit not given (compound concentrations tested given in nM)
Write the value in nM as a bare number.

Observed IC50, JAK2 (Homo sapiens (Human), UniProt O60674), CC(C)CNC(c1ccc(Nc2nn([C@H]3COCC[C@@H]3C#N)c3cc[nH]c(=O)c23)cc1)C(F)(F)F (single isomer, unassigned) [Example 1-90] : 0.4

Observed IC50, JAK2 (Homo sapiens (Human), UniProt O60674), CC1CN(S(=O)(=O)c2ccc(Nc3nn([C@H]4COCC[C@@H]4C#N)c4cc[nH]c(=O)c34)cc2)CCO1 (single isomer, unassigned) [Example 1-75] : 0.54

Observed IC50, JAK2 (Homo sapiens (Human), UniProt O60674), N#C[C@H]1CCOC[C@@H]1n1nc(Nc2ccc(C(N)C(F)(F)F)cc2)c2c(=O)[nH]ccc21 (single isomer, unassigned) [Example 1-8] : 0.22

Observed IC50, JAK2 (Homo sapiens (Human), UniProt O60674), CC(O)(c1ccc(Nc2nn([C@H]3COCC[C@@H]3C#N)c3cc[nH]c(=O)c23)cc1)C(F)(F)F (single isomer, unassigned) [Example 2-3] : 0.39

Observed IC50, JAK2 (Homo sapiens (Human), UniProt O60674), CCNC(c1ccc(Nc2nn([C@H]3COCC[C@@H]3C#N)c3cc[nH]c(=O)c23)cc1)C(F)(F)F (single isomer, unassigned) [Example 1-54] : 0.14

Observed IC50, JAK2 (Homo sapiens (Human), UniProt O60674), C[S+]([O-])c1cc(Nc2nn([C@H]3COCC[C@@H]3C#N)c3cc[nH]c(=O)c23)ccc1F (single isomer, unassigned) [Example 3-3] : 7.44

Observed IC50, JAK2 (Homo sapiens (Human), UniProt O60674), CC(C)(C)S(=O)(=O)c1ccc(Nc2nn([C@H]3COCCC[C@@H]3C#N)c3cc[nH]c(=O)c23)cc1 (single isomer, unassigned) : 21.2
